Reference source for all entries: patent US20080145313A1

tested on: target transcript mRNA in A549 cells; experiment: Level of mRNA of target transcript in A549 cells by quantitative RT-PCR (Tables 12 and 13); assay type: cell-based, human; conditions: 1 nM siRNA, 24 h post-transfection
assay_endpoint: mRNA knockdown of transporter gene target transcript, 1 nM

substance | value_measured
SEQ ID NO: 4896: siRNA targeting SLC2A5 (GLUT5) (chain 1 AAGTCTTCCATGAATTCACCGGTCC; chain 2 AAGUCUUCCAUGAAUUCACCGGUCC; Antisense strand given in DNA and RNA notation, chemistry not given here; one strand in two spellings) | − (<50% mRNA knockdown)
SEQ ID NO: 4966: siRNA targeting ATP7A (chain 1 ATAGCTCCCAATTTGAGGTACTTGG; chain 2 AUAGCUCCCAAUUUGAGGUACUUGG; chemistry not given here; one strand in two spellings) | − (<50% mRNA knockdown)

====

system: HCT-116 cells; test: 5FU toxicity in HCT-116 cells after TYMS or DHFR knockdown, SYBR Green; type: cell-based; conditions: cells transfected with 0.1 nM siRNA; 5FU continuous for 3 days; read-out: IC50 value of 5FU following TYMS knockdown, HCT-116
Excerpt: […]
pIC50: −log10 of the molar value.
assay_endpoint: pIC50

substance | value_measured
SEQ ID NO: 4833: siRNA targeting TYMS (chain 1 AGCAGAGGGAATTCATCTCTCAGGC; chain 2 AGCAGAGGGAAUUCAUCUCUCAGGC; chemistry not given here; one strand in two spellings) | 7.00
SEQ ID NO: 4835: siRNA targeting TYMS (chain 1 ATTCAGGTAAATATGTGCATCTCCC; chain 2 AUUCAGGUAAAUAUGUGCAUCUCCC; chemistry not given here; one strand in two spellings) | 6.49
SEQ ID NO: 4805: non-specific control siRNA (chain 1 GGGAAATGTCTCCTCCCATTGATTT; chain 2 GGGAAAUGUCUCCUCCCAUUGAUUU; chemistry not given here; one strand in two spellings) [reference compound] | 6.19
SEQ ID NO: 4834: siRNA targeting TYMS (chain 1 TGTGGATCCCTTGATAAACCACAGC; chain 2 UGUGGAUCCCUUGAUAAACCACAGC; chemistry not given here; one strand in two spellings) | 6.39

====

test system: target transcript mRNA in A549 cells; assay: Level of mRNA of target transcript in A549 cells by quantitative RT-PCR (Tables 12 and 13); type: cell-based, human; details: 0.1 nM siRNA, 24 h post-transfection
assay_endpoint: mRNA knockdown of energy and metabolism gene target transcript, 0.1 nM

substance | value_measured
1689 (GCCAACAGGATCTTCGGCCCCATCTG; chemistry not given here) [compound 1689] | − (<50% mRNA knockdown)
1687 (CAACAGGATCTTCGGCCCCATCTG; chemistry not given here) [compound 1687] | − (<50% mRNA knockdown)
1691 (TTGCCAACAGGATCTTCGGCCCCATCTG; chemistry not given here) [compound 1691] | − (<50% mRNA knockdown)
1693 (ATTTGCCAACAGGATCTTCGGCCCCATCTG; chemistry not given here) [compound 1693] | − (<50% mRNA knockdown)
1699 (AAGAACGTGAAGCTCCCTGACGCCTA; chemistry not given here) [compound 1699] | − (<50% mRNA knockdown)
